The measurements presented in this section are drawn from patent US9776979B2.

- TARGET OF ASSAY: EBI2 (Homo sapiens)
- Sequence (P32249 whole entry): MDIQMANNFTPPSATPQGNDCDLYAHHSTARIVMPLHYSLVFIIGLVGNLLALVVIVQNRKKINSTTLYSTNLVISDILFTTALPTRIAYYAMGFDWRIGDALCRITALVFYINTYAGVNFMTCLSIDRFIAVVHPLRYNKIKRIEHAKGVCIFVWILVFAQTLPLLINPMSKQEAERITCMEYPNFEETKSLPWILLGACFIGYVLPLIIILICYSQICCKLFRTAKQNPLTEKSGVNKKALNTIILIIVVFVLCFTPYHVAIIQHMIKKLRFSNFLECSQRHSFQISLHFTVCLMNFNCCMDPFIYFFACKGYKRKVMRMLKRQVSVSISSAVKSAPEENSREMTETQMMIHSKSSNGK
- METHOD: Cell-based luminescent assay (EBI2 modulation)
- TEST SETTINGS: cell-based luminescence; 7a,25-OHC final assay concentration 80 nM; 60 minutes incubation; read-out: IC50
MEASURED METRIC: IC50

> print(dat)
                                  smiles.str          result
 1  COC(=O)c1ccc(CN2CCN(C(=O)c3cc4cc(Cl)ccc4[nH]3)CC2)cc1        < 100 nM
 2  O=C(/C=C/c1ccc(Br)cc1)N1CCCN(S(=O)(=O)/C=C/c2ccccc2)CC1        < 100 nM
 3  Cc1ccc(CN2CCN(C(=O)/C=C/c3ccc(Br)cc3)CC2)cc1        < 100 nM
 4  O=C(/C=C/c1ccc(Br)cc1)N1CCN(C(=O)c2ccc(Cl)cc2)CC1        < 100 nM
 5  O=C(C#Cc1ccc(Cl)cc1)N1CCN(C(=O)c2ccc(Cl)cc2)CC1        < 100 nM
 6  Cn1c(C(=O)N2CCN(C(=O)OC(C)(C)C)CC2)cc2ccccc21   100 to 500 nM
 7  O=C(C#Cc1ccc(Cl)c(Cl)c1)N1CCN(Cc2ccc(C(F)(F)F)cc2)CC1  500 to 5000 nM
 8  O=C(C#Cc1cccc(Cl)c1)N1CCN(Cc2ccc(F)cc2)CC1        < 100 nM
 9  Cc1cc(F)ccc1OC1CCN(C(=O)c2cc3cc(Cl)ccc3[nH]2)CC1        < 100 nM
10  CCN(CC)c1ccc(C(=O)N2CCN(C(=O)c3cc4cc(Cl)ccc4[nH]3)CC2)cc1        < 100 nM
11  O=C(c1cc2cc(Cl)ccc2[nH]1)N1CCN(Cc2ccc(F)c(C(F)(F)F)c2)CC1   100 to 500 nM
12  O=C(O)c1cccc(CN2CCN(C(=O)c3cc4cc(Cl)ccc4[nH]3)CC2)c1  500 to 5000 nM
13  O=C(c1cc2cc(Cl)ccc2[nH]1)N1CCN(Cc2ccc(-c3ccccc3)cc2)CC1        < 100 nM
14  O=C(/C=C/c1ccccc1Cl)N1CCN(C(c2ccccc2)c2ccccc2)CC1        < 100 nM
15  CC(C)(C)c1ccc(S(=O)(=O)N2CCN(C(=O)/C=C/c3ccc(F)cc3)CC2)cc1        < 100 nM
16  COc1ccc(CN2CCN(C(=O)C#Cc3ccc(Br)cc3)CC2)cc1        < 100 nM
17  O=C(c1cc2sccc2[nH]1)N1CCN(C(c2ccccc2)c2ccccc2)CC1        < 100 nM
